# System: E. coli TESEC Mtb Alr
# assay_info: growth (OD600 after 10 h); higher = more growth (less inhibition)
# setup_conditions: arabinose 10000000 nM; compound 0.1 mM; raw OD600 reference: median of DMSO wells 0.146, cell-free background 0.041
Counter-ions that a name gives are not always drawn.
endpoint: growth

1) Cn1c(=O)c2c(ncn2CCO)n(C)c1=O = 0.145
2) CCN(CC)C(=O)C1(c2ccccc2)CC1CN (configuration not stated) [Milnacipran hydrochloride] = 0.151
3) O=C(O)CNC(=O)C(CS)Cc1ccccc1 (configuration not stated) = 0.167
4) CC(=O)NCCCS(=O)(=O)O [Acamprosate calcium] = 0.142
5) CN[C@H](CC(C)C)C(=O)N[C@H]1C(=O)N[C@@H](CC(N)=O)C(=O)N[C@H]2C(=O)N[C@H]3C(=O)N[C@H](C(=O)N[C@H](C(=O)O)c4cc(O)cc(O)c4-c4cc3ccc4O)[C@H](O)c3ccc(c(Cl)c3)Oc3cc2cc(c3O[C@@H]2O[C@H](CO)[C@@H](O)[C@H](O)[C@H]2O[C@H]2C[C@](C)(N)[C@H](O)[C@H](C)O2)Oc2ccc(cc2Cl)[C@H]1O [Vancomycin hydrochloride] = 0.0471
6) COC(=O)C1=C(C#N)NC(C)=C(C(=O)OC(C)C)C1c1cccc([N+](=O)[O-])c1 (configuration not stated) = 0.149

Okay, now this compound:
Which measured growth belongs to CCC1(c2ccccc2)C(=O)NCNC1=O , tested on E. coli TESEC Mtb Alr?
0.144

# credit: the supplement of paper PMC9262897
